Consider the following molecules; for each one, report its viability, T/C.
Tested on: 855422-203-R-J1-PDC spheroids with HUVEC/MSC, viability;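 further: agents incubated with spheroids for one week before read-out; 100% = DMSO vehicle-treated control wells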
Test: Anticancer human tumor 855422-203-R-J1-PDC patient-derived bladder carcinoma cell line growth inhibition [PI3K]
Conditions: second compound 0.1 µM; first compound 0.03 µM; active compounds read low

Worked cases, viability, T/C given:
| molecule | observable | measured-value |
| --- | --- | --- |
| Cn1cnc2c(F)c(Nc3ccc(Br)cc3Cl)c(C(=O)NOCCO)cc21 + COc1c(OCCCN2CCOCC2)ccc2c3n(c(=NC(=O)c4cnc(N)nc4)nc12)CCN3 | viability, T/C | 26.1% |
| Cn1cnc2c(F)c(Nc3ccc(Br)cc3Cl)c(C(=O)NOCCO)cc21 + CC(Nc1ncnc2nc[nH]c12)c1cc2cccc(Cl)c2c(=O)n1-c1ccccc1 | viability, T/C | 97% |
| Cn1cnc2c(F)c(Nc3ccc(Br)cc3Cl)c(C(=O)NOCCO)cc21 + Cc1nc(NC(=O)N2CCCC2C(N)=O)sc1-c1ccnc(C(C)(C)C(F)(F)F)c1 | viability, T/C | 92.9% |

Turning now to a further record.
stdin: Please report viability, T/C for the following molecule: Cn1cnc2c(F)c(Nc3ccc(Br)cc3Cl)c(C(=O)NOCCO)cc21 + CC(Nc1ccc2c(c1)OCCn1cc(N3C(=O)OCC3C(F)F)nc1-2)C(N)=O
stdout: 67.1%

This collection of values is drawn from PubChem BioAssay AID1963967.
